- System: MCF7
- Method summary: Growth inhibition of apoptosis sensitive human MCF7 cells assessed as reduction in cell viability incubated for 72 hrs by MTT assay
- Type: functional
- Condition parameters: MCF7, 72 h
Endpoint label: GI50 (µM)

* CO[C@H]1C[C@H]2C(=C[C@@H]1c1ccc[nH]1)[C@H]1C[N@@]2Cc2cc3c(cc21)OCO3 | 68
* CO[C@H]1C[C@H]2C(=C[C@@H]1Cl)[C@H]1C[N@@]2Cc2c(I)c3c(c(I)c21)OCO3 | 78
* CO[C@H]1C[C@H]2C(=C[C@H]1Br)[C@H]1C[N@@]2Cc2cc3c(cc21)OCO3 | 19

[P] C=CCO[C@H]1C=C2[C@H]3C[N@@](Cc4cc5c(cc43)OCO5)[C@H]2C[C@@H]1OC
[Q] CO[C@H]1C[C@H]2C(=C[C@@H]1NCc1ccccc1)[C@H]1C[N@@]2Cc2cc3c(cc21)OCO3
[R] CCO[C@H]1C=C2[C@H]3C[N@@](Cc4cc5c(cc43)OCO5)[C@H]2C[C@@H]1OC
[S] CO[C@H]1C=C2[C@H]3C[N@@](Cc4cc5c(cc43)OCO5)[C@H]2C[C@@H]1OC
Reorder: GI50, max to min. Answer format: list of labels, ordered as asked.
R, Q, P, S

====

GI50 for assorted molecules
- Tested on: Hs 683
- Method summary: Growth inhibition of apoptosis sensitive human Hs683 cells assessed as reduction in cell viability incubated for 72 hrs by MTT assay
- Format: functional
- Condition parameters: Hs 683, 72 h
Only the number, expressed in µM, is required.

Please review the following examples before continuing.
* CO[C@H]1C[C@H]2C(=C[C@@H]1c1ccc[nH]1)[C@H]1C[N@@]2Cc2cc3c(cc21)OCO3 | 95
* CO[C@H]1C[C@H]2C(=C[C@@H]1c1c[nH]c3ccccc13)[C@H]1C[N@@]2Cc2cc3c(cc21)OCO3 | 24

Noted for `CO[C@H]1C[C@H]2C(=C[C@@H]1NCc1ccccc1)[C@H]1C[N@@]2Cc2cc3c(cc21)OCO3` : its GI50 reads 67

Noted for `CO[C@H]1C[C@H]2C(=C[C@@H]1Cl)[C@H]1C[N@@]2Cc2cc3c(cc21)OCO3` : its GI50 reads 6

Noted for `C=CCO[C@H]1C=C2[C@H]3C[N@@](Cc4cc5c(cc43)OCO5)[C@H]2C[C@@H]1OC` : its GI50 reads 7

Noted for `C#CCO[C@H]1C=C2[C@H]3C[N@@](Cc4cc5c(cc43)OCO5)[C@H]2C[C@@H]1OC` : its GI50 reads 24

Noted for `CO[C@H]1C[C@H]2C(=C[C@@H]1Cl)[C@H]1C[N@@]2Cc2c(I)c3c(c(I)c21)OCO3` : its GI50 reads 71

====

- Tested on: MCF7
- Method summary: Growth inhibition of apoptosis sensitive human MCF7 cells assessed as reduction in cell viability incubated for 72 hrs by MTT assay
- Assay type: functional
- Condition parameters: MCF7, 72 h
Endpoint label: GI50 (µM)

• CO[C@H]1C[C@H]2C(=C[C@@H]1O)[C@H]1CN2Cc2cc3c(cc21)OCO3 = 13

[A] C#CCO[C@H]1C=C2[C@H]3C[N@@](Cc4cc5c(cc43)OCO5)[C@H]2C[C@@H]1OC
[B] CO[C@H]1C[C@H]2C(=C[C@@H]1Cl)[C@H]1C[N@@]2Cc2cc3c(cc21)OCO3
// compare measured GI50 between A and B ; output the lower one Response format: the label of the selected entry.
B
(B: 17 µM, A: 28 µM)
